# EXPERIMENTAL DETAILS: Bioavailability in Balb/c mouse at 4 mg/kg, ip by LC-MS/MS analysis
# Format: ADME, organism-based
# CONDITION DETAILS: in vivo

COMPOUND	bioavailability (%)
C/C(=N\Nc1nc2ccccc2n1C1CN(C2CCN(c3cccc4c3C(=O)N(C3CCC(=O)NC3=O)C4=O)CC2)C1)c1ccccn1 (stereo unspecified)	8

====

# TGT: Protein cereblon/Nuclear receptor coactivator 3 (Homo sapiens, UniProt Q9Y6Q9+Q96SW2)
# Sequence (Q96SW2 whole entry partner): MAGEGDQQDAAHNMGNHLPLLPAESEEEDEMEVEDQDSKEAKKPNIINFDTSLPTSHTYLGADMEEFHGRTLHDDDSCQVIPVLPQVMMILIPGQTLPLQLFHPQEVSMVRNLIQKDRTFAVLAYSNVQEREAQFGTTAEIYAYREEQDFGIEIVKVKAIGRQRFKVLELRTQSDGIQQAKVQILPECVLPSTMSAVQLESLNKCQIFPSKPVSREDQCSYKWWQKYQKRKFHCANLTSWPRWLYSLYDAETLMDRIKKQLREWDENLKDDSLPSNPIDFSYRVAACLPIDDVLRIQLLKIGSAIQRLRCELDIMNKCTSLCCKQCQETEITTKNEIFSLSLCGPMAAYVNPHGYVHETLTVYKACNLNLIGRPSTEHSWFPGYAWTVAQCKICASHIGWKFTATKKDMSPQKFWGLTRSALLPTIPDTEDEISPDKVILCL
# Sequence (Q9Y6Q9 2-1424 limits assumed): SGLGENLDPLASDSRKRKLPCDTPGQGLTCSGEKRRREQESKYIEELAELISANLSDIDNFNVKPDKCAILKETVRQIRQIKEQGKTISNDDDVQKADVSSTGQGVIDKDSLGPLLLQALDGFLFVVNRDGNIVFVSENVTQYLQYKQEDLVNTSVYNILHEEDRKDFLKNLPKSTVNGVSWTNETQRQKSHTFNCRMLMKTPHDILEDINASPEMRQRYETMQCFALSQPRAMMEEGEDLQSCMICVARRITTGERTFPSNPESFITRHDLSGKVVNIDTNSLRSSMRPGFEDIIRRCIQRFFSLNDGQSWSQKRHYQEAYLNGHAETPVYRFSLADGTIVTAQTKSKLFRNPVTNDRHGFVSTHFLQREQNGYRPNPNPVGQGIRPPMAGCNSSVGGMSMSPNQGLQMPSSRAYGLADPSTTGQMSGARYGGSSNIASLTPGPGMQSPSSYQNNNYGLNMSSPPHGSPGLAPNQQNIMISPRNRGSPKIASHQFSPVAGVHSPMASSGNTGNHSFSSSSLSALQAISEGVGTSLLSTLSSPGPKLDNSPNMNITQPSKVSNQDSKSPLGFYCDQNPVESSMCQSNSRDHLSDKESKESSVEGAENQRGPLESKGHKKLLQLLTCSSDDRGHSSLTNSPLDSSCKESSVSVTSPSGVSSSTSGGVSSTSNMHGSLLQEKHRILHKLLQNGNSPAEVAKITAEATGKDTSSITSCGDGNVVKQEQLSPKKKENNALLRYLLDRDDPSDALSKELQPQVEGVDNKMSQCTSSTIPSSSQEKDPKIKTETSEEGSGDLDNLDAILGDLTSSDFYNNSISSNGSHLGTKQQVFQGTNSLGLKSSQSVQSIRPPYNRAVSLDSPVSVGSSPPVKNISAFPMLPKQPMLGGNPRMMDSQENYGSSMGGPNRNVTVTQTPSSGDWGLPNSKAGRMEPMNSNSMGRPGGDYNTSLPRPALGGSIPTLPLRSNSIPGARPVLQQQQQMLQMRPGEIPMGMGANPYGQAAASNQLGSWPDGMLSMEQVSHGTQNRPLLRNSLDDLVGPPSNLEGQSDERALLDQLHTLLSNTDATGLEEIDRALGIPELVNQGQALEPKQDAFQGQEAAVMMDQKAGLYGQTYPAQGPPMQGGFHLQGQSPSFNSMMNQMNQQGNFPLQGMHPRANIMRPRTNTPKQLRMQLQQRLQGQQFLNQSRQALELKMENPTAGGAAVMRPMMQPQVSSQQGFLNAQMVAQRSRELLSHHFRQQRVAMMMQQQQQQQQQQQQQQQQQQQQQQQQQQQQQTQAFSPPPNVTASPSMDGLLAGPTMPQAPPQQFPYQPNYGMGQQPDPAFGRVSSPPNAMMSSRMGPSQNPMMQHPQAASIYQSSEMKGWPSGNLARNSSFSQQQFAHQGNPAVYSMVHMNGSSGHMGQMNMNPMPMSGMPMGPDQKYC
# EXPERIMENTAL DETAILS: PROTAC activity at CRBN/SRC-3 in human MCF7 cells assessed as induction of SRC-3 degradation at 1 uM incubated for 24 hrs by immunoblot analysis relative to control
# Type: cell-based
Active and inactive are the calls of the source. The calls are words filed in the database; no cut-off is given here.

COMPOUND	Activity
C/C(=N\Nc1nc2ccccc2n1C1CN(C(=O)C2CN(c3cccc4c3C(=O)N(C3CCC(=O)NC3=O)C4=O)C2)C1)c1ccccn1 (stereo not given)	inactive
C/C(=N\Nc1nc2ccccc2n1CCNC(=O)CN1CCC2(CC1)CCN(c1ccc3c(c1)C(=O)N(C1CCC(=O)NC1=O)C3=O)CC2)c1ccccn1 (stereo not given)	inactive
C/C(=N\Nc1nc2ccccc2n1CC1CN(c2cccc3c2C(=O)N(C2CCC(=O)NC2=O)C3=O)C1)c1ccccn1 (stereo not given)	15%
C/C(=N\Nc1nc2ccccc2n1CC1CCN(C(=O)CCCCCCCNc2cccc3c2CN(C2CCC(=O)NC2=O)C3=O)CC1)c1ccccn1 (stereo not given)	32%
C/C(=N\Nc1nc2ccccc2n1C1CN(C2CCN(c3cccc4c3C(=O)N(C3CCC(=O)NC3=O)C4=O)CC2)C1)c1ccccn1 (stereo not given)	71%
